target: Nuclear factor erythroid 2-related factor 2 (Mus musculus); experiment: Activation of NRF2 in C57BL/6 mouse bone marrow cells assessed as increase in Hmox1 gene expression exposed to 1% oxygen at 2 uM incubated for 4 hrs by qRT-PCR analysis; type: cell-based; conditions: Bone marrow cell, filed as activator
Activity calls are given as the source filed them. The calls are words filed in the database; no cut-off is given here.
Measured Attribute: Activity

CCCCCCCC/C(=C\CCCCCCCC(=O)O)[N+](=O)[O-] ... Active
CCCCCCCC/C=C(\CCCCCCCC(=O)O)[N+](=O)[O-] ... Active

###

Biological target: Nuclear factor erythroid 2-related factor 2 (Mus musculus) (UniProt Q60795)
Sequence (whole entry): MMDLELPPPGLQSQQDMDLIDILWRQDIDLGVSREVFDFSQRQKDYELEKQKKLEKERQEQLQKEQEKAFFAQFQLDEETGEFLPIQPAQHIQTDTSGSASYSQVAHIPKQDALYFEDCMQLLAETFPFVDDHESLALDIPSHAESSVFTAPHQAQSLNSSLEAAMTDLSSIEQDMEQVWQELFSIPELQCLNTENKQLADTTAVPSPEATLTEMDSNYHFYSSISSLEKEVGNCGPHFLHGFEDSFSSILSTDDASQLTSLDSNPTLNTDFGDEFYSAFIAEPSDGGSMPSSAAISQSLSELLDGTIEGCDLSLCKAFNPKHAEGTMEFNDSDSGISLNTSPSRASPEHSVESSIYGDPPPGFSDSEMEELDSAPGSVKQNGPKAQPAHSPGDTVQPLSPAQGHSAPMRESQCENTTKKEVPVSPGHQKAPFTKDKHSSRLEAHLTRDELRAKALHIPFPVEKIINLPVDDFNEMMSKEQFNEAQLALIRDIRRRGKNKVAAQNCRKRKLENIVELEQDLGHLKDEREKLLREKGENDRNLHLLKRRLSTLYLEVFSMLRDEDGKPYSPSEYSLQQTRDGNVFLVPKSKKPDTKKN
Assay: Induction of NRF2 stabilization in C57BL/6 mouse bone marrow cells exposed to 4% oxygen at 2 uM incubated for 1 hr
Assay type: cell-based
Conditions: Bone marrow cell
Activity calls are given as the source filed them. No cut-off for these calls is given here.
Measured Attribute: Activity

CCCCCCCC/C(=C\CCCCCCCC(=O)O)[N+](=O)[O-] ... Active
CCCCCCC=C/C=C(\CCCCCCCC(=O)O)[N+](=O)[O-] ... Active
CCCCCCCC/C=C(\CCCCCCCC(=O)O)[N+](=O)[O-] ... Active
CCCCC/C=C\C/C(=C\CCCCCCCC(=O)O)[N+](=O)[O-] ... Active

// switching to the query compound
Activity reported for this compound CCCCCCCCC(CCCCCCCCC(=O)O)[N+](=O)[O-] (stereo not given) : Active

###

target: Nuclear factor erythroid 2-related factor 2 (Mus musculus) (UniProt Q60795); assay: Activation of NRF2 in C57BL/6 mouse bone marrow cells assessed as increase in Gclm gene expression exposed to 4% oxygen at 2 uM incubated for 4 hrs by qRT-PCR analysis; format: cell-based; details: Bone marrow cell, filed as activator
Calls of active or inactive are those of the source. The rule behind the calls is not given here.
Measured Attribute: Activity

CCCCCCCC/C=C(\CCCCCCCC(=O)O)[N+](=O)[O-] ... Active
CCCCCCCC/C(=C\CCCCCCCC(=O)O)[N+](=O)[O-] ... Active

###

Molecular target: Nuclear factor erythroid 2-related factor 2 (Mus musculus) (UniProt Q60795)
Sequence (whole entry): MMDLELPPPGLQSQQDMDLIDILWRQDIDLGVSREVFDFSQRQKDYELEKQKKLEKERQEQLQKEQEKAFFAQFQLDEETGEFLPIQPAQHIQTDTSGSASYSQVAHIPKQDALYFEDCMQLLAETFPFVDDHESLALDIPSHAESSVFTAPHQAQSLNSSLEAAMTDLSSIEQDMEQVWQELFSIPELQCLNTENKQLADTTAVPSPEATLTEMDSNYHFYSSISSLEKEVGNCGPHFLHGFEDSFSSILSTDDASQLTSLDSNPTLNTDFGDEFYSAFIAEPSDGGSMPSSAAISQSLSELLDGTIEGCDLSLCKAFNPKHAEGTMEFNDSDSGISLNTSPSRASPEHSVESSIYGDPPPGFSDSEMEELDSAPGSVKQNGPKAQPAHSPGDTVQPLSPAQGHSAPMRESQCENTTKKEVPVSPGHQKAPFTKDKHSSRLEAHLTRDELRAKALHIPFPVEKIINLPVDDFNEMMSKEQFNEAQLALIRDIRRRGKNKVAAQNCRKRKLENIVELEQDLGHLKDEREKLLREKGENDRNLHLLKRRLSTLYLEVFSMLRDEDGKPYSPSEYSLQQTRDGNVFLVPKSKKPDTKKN
Test: Activation of NRF2 in C57BL/6 mouse bone marrow cells assessed as increase in Gclm gene expression exposed to 1% oxygen at 2 uM incubated for 4 hrs by qRT-PCR analysis
Format: cell-based
Settings: Bone marrow cell, filed as activator
Active and inactive are the calls of the source. The calls are words filed in the database; no cut-off is given here.
Measured Attribute: Activity

CCCCCCCC/C(=C\CCCCCCCC(=O)O)[N+](=O)[O-] ... Active
CCCCCCCC/C=C(\CCCCCCCC(=O)O)[N+](=O)[O-] ... Active
